Target: UniProt P51639
Sequence (P51639 whole entry): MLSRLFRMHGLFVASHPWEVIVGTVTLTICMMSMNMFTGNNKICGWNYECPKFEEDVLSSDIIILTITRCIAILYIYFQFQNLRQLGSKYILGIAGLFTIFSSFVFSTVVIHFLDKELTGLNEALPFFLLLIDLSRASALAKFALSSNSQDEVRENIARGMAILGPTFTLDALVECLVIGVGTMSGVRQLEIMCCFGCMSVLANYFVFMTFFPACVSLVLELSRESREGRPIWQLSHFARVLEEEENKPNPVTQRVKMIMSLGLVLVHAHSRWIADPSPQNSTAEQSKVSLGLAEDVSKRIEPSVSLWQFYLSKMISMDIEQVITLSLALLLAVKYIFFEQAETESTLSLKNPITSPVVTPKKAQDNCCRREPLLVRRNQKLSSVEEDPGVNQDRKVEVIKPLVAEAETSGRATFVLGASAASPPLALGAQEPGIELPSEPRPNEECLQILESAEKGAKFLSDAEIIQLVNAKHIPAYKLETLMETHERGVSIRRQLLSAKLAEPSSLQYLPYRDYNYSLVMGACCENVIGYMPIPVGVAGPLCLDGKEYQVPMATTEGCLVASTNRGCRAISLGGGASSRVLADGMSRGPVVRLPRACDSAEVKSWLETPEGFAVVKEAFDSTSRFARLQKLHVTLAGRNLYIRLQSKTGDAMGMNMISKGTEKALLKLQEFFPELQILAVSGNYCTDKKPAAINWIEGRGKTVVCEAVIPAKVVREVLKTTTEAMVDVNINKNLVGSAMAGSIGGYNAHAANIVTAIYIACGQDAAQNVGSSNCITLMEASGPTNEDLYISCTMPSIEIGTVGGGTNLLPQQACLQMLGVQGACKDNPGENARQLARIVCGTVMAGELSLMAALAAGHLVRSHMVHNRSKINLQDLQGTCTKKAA
Endpoint Label: IC50 (nM)

# example entries with known answers
COC(=O)C[C@H](O)C[C@H](O)/C=C/n1c(C(C)C)cc(-c2cccc(Cl)c2)c1-c1ccc(F)cc1    2
COC(=O)C[C@H](O)C[C@H](O)/C=C/n1c(C(C)C)cc(-c2ccc(F)cc2)c1-c1ccccc1    25
CC[C@H](C)C(=O)O[C@H]1C[C@@H](C)C=C2C=C[C@H](C)[C@H](CC[C@@H]3C[C@@H](O)CC(=O)O3)[C@H]21    3

[a] CC[C@H](C)C(=O)O[C@H]1C[C@H](O)C=C2C=C[C@H](C)[C@H](CC[C@@H](O)C[C@@H](O)CC(=O)O)[C@H]21 [PRAVASTATIN SODIUM]
[b] COC(=O)C[C@H](O)C[C@H](O)/C=C/n1c(C(C)C)cc(-c2ccc(F)cc2)c1-c1ccc(F)cc1
**Query** For the two items a and b , which reports the higher IC50 value? Refer to your chosen item by its label in the answer.
**Result** a
(a: 5 nM, b: 2 nM)

----------
test: Lipophilicity was determined; type: physicochemical; conditions: octanol/water
Endpoint Label: logD

COC(=O)C[C@H](O)C[C@H](O)/C=C/n1c(C(C)C)cc(-c2ccc(F)cc2)c1-c1ccc(F)cc1    2.1
COC(=O)C[C@H](O)C[C@H](O)/C=C/n1c(C(C)C)cc(-c2cccc(Cl)c2)c1-c1ccc(F)cc1    2.57

[A] COC(=O)C[C@H](O)C[C@H](O)/C=C/n1c(C(C)C)cc(-c2cccc(Br)c2)c1-c1ccc(F)cc1
[B] COC(=O)C[C@H](O)C[C@H](O)/C=C/n1c(C(C)C)cc(-c2ccncc2)c1-c1ccc(F)cc1
**Query** // returns A or B , whichever has the lower logD Record your answer as the label of the chosen record.
**Result** B
